These data points were gathered from patent US12643887B2.

# EXPERIMENTAL SYSTEM: human HIPK1 (Homo sapiens, UniProt Q86Z02)
# Construct: Recombinant human HIPK1 (156-555); GST (N); purchased SignalChem H03-11G; host or cells: Sf9 insect cells
# Sequence (Q86Z02 156-555): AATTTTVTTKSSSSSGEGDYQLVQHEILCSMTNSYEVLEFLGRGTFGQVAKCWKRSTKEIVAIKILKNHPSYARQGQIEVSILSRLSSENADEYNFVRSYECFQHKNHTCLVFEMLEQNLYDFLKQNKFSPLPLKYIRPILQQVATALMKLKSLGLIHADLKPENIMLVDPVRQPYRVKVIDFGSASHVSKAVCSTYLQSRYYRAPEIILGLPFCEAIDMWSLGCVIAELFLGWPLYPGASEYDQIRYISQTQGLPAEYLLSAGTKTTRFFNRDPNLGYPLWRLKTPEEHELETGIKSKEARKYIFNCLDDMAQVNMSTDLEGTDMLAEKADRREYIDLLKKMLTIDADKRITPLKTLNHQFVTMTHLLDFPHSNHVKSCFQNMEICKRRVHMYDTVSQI
# METHOD DESCRIPTION: HIPK1 enzyme assay (ADP-Glo)
# Format: biochemical
# EXPERIMENTAL SETUP: ADP-Glo, ATP 5 μM; read-out: HIPK1 IC50
# Description: The ability of compounds to inhibit human HIPK1 kinase activities was determined using a commercially available ADP-Glo™ Kinase Assay kit (Promega, Cat #V9102) according to the manufacturer's protocol. Recombinant human HIPK1 (156-555) (expressed in Sf9 insect cells with an N-terminal GST tag) was purchased from SignalChem (Cat #H03-11G). […] The light generated is measured using a luminometer. […]
READOUT: IC50

LINE NOTATION: CN(C1=N/C(=C\c2ccc3ncsc3c2)C(=O)N1)c1ccc([N+](=O)[O-])cc1
OBSERVED RESULT: > 10 µM

input: Requested field: IC50. Item: `CN(C1=N/C(=C\c2ccc3ncsc3c2)C(=O)N1)c1ccc(Cl)cc1`
output: > 10 µM

input: Consider the compound shown here: `O=C1NC(Nc2ccccc2)=N/C1=C\c1ccc2cn[nH]c2c1` What is its recorded IC50?
output: > 10 µM

input: Quick one: IC50 for `CN(C1=N/C(=C\c2ccc3c(c2)OC(F)(F)O3)C(=O)N1)c1ccccc1` ?
output: > 10 µM

input: IC50 for `O=C1NC(NCc2ccccc2)=N/C1=C\c1ccc2ncsc2c1` ?
output: 0.1 to 1 µM

input: Consider the compound shown here: `Cn1cnc2cc(/C=C3\N=C(Nc4ccccc4)NC3=O)ccc21` What is its recorded IC50?
output: > 10 µM

input: Would you mind telling me what IC50 value was observed for `COc1ccc(N(C)C2=N/C(=C\c3ccc4ncsc4c3)C(=O)N2)cc1` ?
output: 1 to 10 µM

====

# EXPERIMENTAL SYSTEM: human HIPK1 (Homo sapiens, UniProt Q86Z02)
# Construct: Recombinant human HIPK1 (156-555); GST (N); purchased SignalChem H03-11G; host or cells: Sf9 insect cells
# METHOD DESCRIPTION: HIPK1 enzyme assay (ADP-Glo)
# Assay type: biochemical
# EXPERIMENTAL SETUP: ADP-Glo, ATP 5 μM; read-out: HIPK1 IC50
READOUT: IC50

A selection of reference data follows.
LINE NOTATION: CN(C1=N/C(=C\c2ccc3c(c2)OCO3)C(=O)N1)c1ccccc1
OBSERVED RESULT: > 10 µM

LINE NOTATION: O=C1NC(Nc2ccccc2)=N/C1=C\c1ccc2occc2c1
OBSERVED RESULT: > 10 µM

LINE NOTATION: CN(C1=N/C(=C\c2ccc3ncccc3c2)C(=O)N1)c1ccc2ncsc2c1
OBSERVED RESULT: > 10 µM

input: Find the recorded IC50 belonging to `O=C1NC(Nc2ccc3nc[nH]c3c2)=N/C1=C\c1ccc2ncsc2c1` and report it.
output: 0.1 to 1 µM

input: Endpoint output: IC50 of `O=C1NC(Nc2ccc3c(c2)OCCO3)=N/C1=C\c1ccc2ncsc2c1` . Value?
output: 0.1 to 1 µM

input: Sample `O=C1NC(Nc2ccc3ncsc3c2)=N/C1=C\c1ccc2cc[nH]c2c1` — what was its IC50?
output: > 10 µM

input: # IC50 lookup, item `CN(C1=N/C(=C\c2ccc3[nH]cnc3c2)C(=O)N1)c1ccccc1`
output: > 10 µM

input: Would you mind telling me what IC50 value was observed for `CN(C1=N/C(=C\c2ccc3c(c2)OCCO3)C(=O)N1)c1ccccc1` ?
output: > 10 µM

input: Entry under review: `O=C1NC(Nc2ccccc2)=N/C1=C\c1ccc2[nH]ccc2c1` . Reported IC50?
output: > 10 µM
